The measurements presented in this section are drawn from the RepoRT retention time repository (doi:10.1016/j.chroma.2012.03.059).

# test.method.notes: RP, Agilent ZORBAX Eclipse XDB-C8, 150 × 4.6 mm, 3.5 µm, 25 °C, 0.6 mL/min, estimated dead time 2.6 min; A: water + 0.1% formic acid; B: acetonitrile + 0.1% formic acid; gradient (min/%B) 0/10 5/10 30/100
# measurement.context: stereoisomer not certain
assay.readout: LC retention time
In your response, the unit should come after the numeric value.

1. Cc1cccc(Nc2ccccc2C(=O)O)c1C    24.6 min

Below are some compounds; for each one, tell me its LC retention time.
1. CC(=O)CC(c1ccccc1)c1c(O)c2ccccc2oc1=O (stereo not given)
2. NC(=O)N1c2ccccc2CC(O)c2ccccc21 (stereo not given)
3. CC(C(=O)O)c1cccc(C(=O)c2ccccc2)c1 (stereo not given)
4. CC(C)Cc1ccc(C(C)C(=O)O)cc1 (stereo not given)
5. Nc1ccc(S(=O)(=O)Nc2nccs2)cc1

Result:
1: 21.4 min; 2: 13.9 min; 3: 19 min; 4: 23.6 min; 5: 10.6 min

Provide each entry's LC retention time from the list below.
1. Cc1ccc(C)c(OCCCC(C)(C)C(=O)O)c1
2. CN1CCC23CCCCC2C1Cc1ccc(O)cc13 (stereo not given)
3. CCC1OC(=O)C(C)C(OC2CC(C)(OC)C(O)C(C)O2)C(C)C(OC2OC(C)CC(N(C)C)C2O)C(C)(O)CC(C)C(=NOCOCCOC)C(C)C(O)C1(C)O (stereo not given)
4. NC(=O)N1c2ccccc2CCc2ccccc21
5. CC12CCC(O)CC1CCC1C2CC(O)C2(C)C(C3=CC(=O)OC3)CCC12O (stereo not given)
6. O=C(c1ccccc1)c1ccc2n1CCC2C(=O)O (stereo not given)
7. COC(=O)c1c(C)nc(C)c(C(=O)OC)c1-c1ccccc1[N+](=O)[O-]
8. c1ccc2[nH]c(-c3cscn3)nc2c1

Result:
["25 min", "12.1 min", "16.2 min", "17.1 min", "13.4 min", "19.7 min", "20.5 min", "8.8 min"]
